Entry source: patent US6476263B1

Residues, ends and D or L forms follow the SMILES beside them.
Entries annotated with measured melting point

Below, each entry is followed by its recorded melting point result.
compound	reported-property	test-result
COC(=O)C(NC(=O)[C@H](C)NC(=O)Cc1cc(F)cc(F)c1)c1csc2ccccc12 (stereo partly shown) [Example 175]	melting point	185 to 186 °C
COC(=O)[C@@H](NC(=O)[C@H](CCSC)NC(=O)Cc1cc(F)cc(F)c1)c1ccccc1 [Example 193]	melting point	189.3 °C
CCOC(=O)[C@H](C)NC(=O)[C@@H](NC(=O)CC(C)C)c1ccccc1 [Example 74] (HELM PEPTIDE1{[CC(C)CC(=O)[*:2]].[Phg].A.[CCO[*:1]]}$$$$V2.0)	melting point	198 to 201 °C
CC(C)C(NC(=O)Cc1cc(F)cc(F)c1)C(=O)NC(=O)C(N)c1ccccc1 (mixture of isomers) [Example 249]	melting point	260.3 to 264.3 °C
CC(C)C[C@H](NC(=O)[C@H](C)NC(=O)Cc1cc(F)cc(F)c1)C(=O)OC(C)(C)C [Example 40]	melting point	128 °C

Incoming: Bench note: what melting point did COC(=O)[C@@H](NC(=O)[C@@H](NC(=O)Cc1cc(F)cc(F)c1)C(C)C)c1ccccc1 [Example 194] show?
Outgoing: 226.5 °C

---

Residues, ends and D or L forms follow the SMILES beside them.
// melting point lookup, one value per entry

Study these solved cases before continuing.
molecule	test-result
COC(=O)CNC(=O)[C@H](C)NC(=O)Cc1ccccc1 [Example 206] (HELM PEPTIDE1{[O=C(Cc1ccccc1)[*:2]].A.G.[CO[*:1]]}$$$$V2.0)	152 to 153.5 °C
COC(=O)C1CCCCN1C(=O)[C@H](C)NC(=O)Cc1cc(F)cc(F)c1 (some centres unmarked)	114 to 118 °C
COC(=O)[C@H](Cc1c[nH]c2ccccc12)NC(=O)[C@H](C)NC(=O)Cc1cc(F)cc(F)c1	191 to 193 °C
CC[C@H](C)[C@H](NC(=O)Cc1cc(F)cc(F)c1)C(=O)N[C@H](C(=O)OC)c1ccccc1	228.8 °C

Incoming: Using the record for CCOC(=O)[C@H](CO)NC(=O)[C@H](C)NC(=O)Cc1cccc([N+](=O)[O-])c1 , report its melting point.
Outgoing: 179 to 181 °C

---

Residues, ends and D or L forms follow the SMILES beside them.
Measured melting point, listed per entry for reference.

# count of solved cases: 2
molecule	melting point
COC(=O)C(NC(=O)[C@H](C)NC(=O)Cc1cc(F)cc(F)c1)c1cccc(C(F)(F)F)c1 (stereo partly drawn) [Example 183]	133 to 134 °C
CCOC(=O)[C@H](C)NC(=O)[C@@H](NC(=O)Cc1ccccc1)c1ccccc1 [Example 108] (HELM PEPTIDE1{[O=C(Cc1ccccc1)[*:2]].[Phg].A.[CCO[*:1]]}$$$$V2.0)	208 to 210 °C

We next turn to a different molecule, shown below.
Incoming: Bench note: what melting point did CCCC[C@H](NC(=O)Cc1cc(F)cc(F)c1)C(=O)N[C@H](C(=O)OC)c1ccccc1 [Example 252] show?
Outgoing: 188 to 189.5 °C

---

// values below are reported melting point

Past entries and their recorded results:
compound	test-result
CCCCCC=CCCC(=O)N[C@@H](C)C(=O)N[C@@H](Cc1ccccc1)C(=O)OC [Example 12]	115.5 to 117.5 °C
C[C@H](NC(=O)Cc1cc(F)cc(F)c1)C(=O)N[C@H](C(=O)OCC(C)(C)C)c1ccccc1 [Example 138]	133 to 136 °C
COC(=O)[C@@H](NC(=O)CNC(=O)Cc1cc(F)cc(F)c1)c1ccccc1 [Example 198]	142.3 °C
C[C@H](NC(=O)CC1CCCC1)C(=O)N[C@H](C(=O)OC(C)(C)C)c1ccccc1 [Example 328]	133 to 138 °C
COC(=O)[C@H](Cc1ccccc1)NC(=O)[C@H](C)NC(=O)Cc1cccc([N+](=O)[O-])c1 [Example 75]	154 to 158 °C
CCOC(=O)C(NC(=O)[C@H](C)NC(=O)Cc1cc(F)cc(F)c1)c1cc2ccccc2s1 (stereo partly shown) [Example 174]	189 to 190 °C
COC(=O)[C@H](Cc1ccc(OCCCN(C)C)cc1)NC(=O)[C@H](C)NC(=O)Cc1cc(F)cc(F)c1 [Example 13]	153 to 155 °C
COC(=O)[C@@H](NC(=O)[C@H](C)NC(=O)Cc1cc(F)cc(F)c1)c1ccccc1 [Example 111]	198 to 200 °C
COC(=O)[C@@H](NC(=O)[C@H](NC(=O)Cc1cc(F)cc(F)c1)c1cccs1)c1ccccc1 [Example 259]	230.8 °C

Here's the next entry for you.
Incoming: Which value of melting point has been reported for C[C@H](NC(=O)Cc1cc(F)cc(F)c1)C(=O)NCC(=O)OCCCc1ccccc1 [Example 46] in the records?
Outgoing: 137 °C
